- Experimental Protocol: NCI Yeast Anticancer Drug Screen. Data for the cln2 rad14 strain (AID 165);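 note: 0% = growth equal to vehicle treated cultures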
- Applied Conditions: S. cerevisiae cln2 rad14 strain, at 5.0 µM (retest, dose inferred, filed as 0.5), active compounds read high
The panel holds about 79,000 compounds, 15% with a hit somewhere; the sample as a whole holds those more often.
Assignment: determine reported growth inhibition for the given compounds.
State just the number; it will be interpreted in %.

Looking up N=P(c1ccccc1)(c1ccccc1)c1ccccc1.[O]=[Cr](=[O])([OH])[O][Cr](=[O])(=[O])[OH] , I see its growth inhibition listed as -4

Looking up CCOC(=O)C1=C(C(=O)OCC)C2(c3ccccc3)N(O1)c1ccccc1C2(C)C (centres undefined) , I see its growth inhibition listed as 6

Looking up COc1cc(C(=O)CCN(CCCl)CCCl)cc(OC)c1OC , I see its growth inhibition listed as 0

Looking up CCC[CH2][Sn]1([CH2]CCC)[O]C(=O)c2cccc(C)c2[O]1 , I see its growth inhibition listed as 86

Looking up N#CC(Nc1c(N)nc(-c2ccccc2)nc1N)c1ccc(N(CCCl)CCCl)cc1 (centres undefined) , I see its growth inhibition listed as -10

Looking up CN(C)CC1CC2C3CC=C4CC(O)CCC4(C)C3CCC2(C)C1=O (centres undefined) , I see its growth inhibition listed as 4

Looking up [Au+].c1c[n-]cn1.c1ccc([PH+](c2ccccc2)c2ccccc2)cc1 , I see its growth inhibition listed as 98

Looking up CC(C)CCCC(C)CCC1C(=O)NC(=O)NC1=O (centres undefined) , I see its growth inhibition listed as -1

Looking up O=S(=O)([O-])[O-].[Fe+2].c1ccc(/C(=N\Nc2ccccn2)c2ccccn2)cc1 , I see its growth inhibition listed as -3

Looking up CN(C)CCSC1=Nc2ccc(Cl)cc2C(c2ccccc2Cl)=NC1 , I see its growth inhibition listed as 4

Looking up O=C(N/N=C/c1cc(Cl)cc(Cl)c1[O-])c1ccccc1O.O=C(N/N=C/c1cc(Cl)cc(Cl)c1[O-])c1ccccc1O.[Zn+2] , I see its growth inhibition listed as 92

Looking up C[C@]12CC[C@H]3[C@@H](C[C@@H](F)C4=CC(=O)CC[C@@]43C)[C@@H]1CC[C@@H]2O , I see its growth inhibition listed as -2

Looking up CC1=CCC2(C)C3CCC4(C)C(O)CCC4C3CCC2(C)C1 (centres undefined) , I see its growth inhibition listed as -6

Looking up O=[N+]([O-])c1csc([N+](=O)[O-])c1 , I see its growth inhibition listed as 75

Looking up CC(C)C1(NC(=O)C2C=C3c4cccc5[nH]cc(c45)CC3N(C)C2)OC2(O)C3CCCN3C(=O)C(Cc3ccccc3)N2C1=O (centres undefined) , I see its growth inhibition listed as -8

Looking up COC(=O)C1C2c3ccccc3C(c3ccccc32)C1C(=O)OC (centres undefined) , I see its growth inhibition listed as -3

Looking up CCOP(=O)(CP(=O)(OCC)OCC)OCC.[Cl][Sn]([Cl])([c]1ccccc1)[c]1ccccc1 , I see its growth inhibition listed as 7

Looking up C/C(=N\N=C(/[Se])N1CC2CCC(CC2)C1)c1ccccn1 , I see its growth inhibition listed as 32

Looking up COC1CC(CC2CCC(C)C(C(C)C(=O)O)O2)OC2(OC(C)(C3CCC(C)(C4OC(C5OC(O)(CO)C(C)CC5C)CC4C)O3)CC2C)C1C (centres undefined) , I see its growth inhibition listed as 26
